Numbers sourced from paper PMC11874007.

target: human α5β1-integrin (Homo sapiens, UniProt P05556+P08648); construct: purchased R&D 3230-A5-050; experiment: ELISA-type solid-phase binding assay: soluble α5β1 competing for immobilized fibronectin; details: competitive ELISA-type assay, referenced to internal standard cilengitide (L2)
Please go through the items and note down their pIC50.
Give bare numbers, as −log10 of the molar value.

INSERT INTO assay_data (structure_string, measurement) VALUES
  ('C#CCCC(=O)NCCCOc1ccc(C(=O)N[C@H](CC(=O)O)Cc2ccc(OCCCNc3cc(OC)ccn3)cc2)cc1', 7.13);

# input for lookup
Qu. Enter reported pIC50 observed with human α5β1-integrin (Homo sapiens, UniProt P05556+P08648) for Cc1cc(OCCCNC(=O)CCCCCNC(=O)CCCCC[N+]2=C(/C=C/C=C/C=C3/N(C)c4ccc5ccccc5c4C3(C)C)C(C)(C)c3c2ccc2ccccc32)cc(C)c1C(=O)N[C@@H](CNC(=O)CNC(=O)c1cccc(NC(=N)N)c1)C(=O)O
Ans. 8.33

====

target: human α5β1-integrin (human); assay: ELISA; competitive ELISA-type solid-phase assay: human fibronectin (0.5 μg/mL) coated on the plate overnight at 4 °C, soluble human α5β1 (2.0 μg/mL) added with a dilution series of the ligand (20 μM to 256 pM), 1 h at RT; blocked in 20 mM Tris-HCl pH 7.5, 150 mM NaCl, 1 mM CaCl2, 1 mM MgCl2, 1 mM MnCl2, 1% BSA; bound integrin detected with anti-CD49e; IC50 referenced to cilengitide
readout type: IC50

Qu. What does the data say about its IC50? Entry: L3-Cy5.5, the Cy5.5 conjugate of c(FRGDLAFp(NMe)K) (L3) (peptide)
Ans. > 1 µM

====

target: human αvβ6-integrin (Homo sapiens, UniProt P06756+P18564); construct: purchased R&D 3817-AV-050; experiment: ELISA-type solid-phase binding assay: soluble αvβ6 competing for immobilized LAP (TGF-β); details: competitive ELISA-type assay, referenced to internal standard RTDLDSLRT
readout type: pIC50
Numbers only, as −log10 of the molar value.

INSERT INTO measurements (molecule, measurement) VALUES
  ('Cc1cc(OCCCNC(=O)CCCCCNC(=O)CCCCC[N+]2=C(/C=C/C=C/C=C3/N(C)c4ccc5ccccc5c4C3(C)C)C(C)(C)c3c2ccc2ccccc32)cc(C)c1C(=O)N[C@@H](CNC(=O)CNC(=O)c1cccc(NC(=N)N)c1)C(=O)O [L5-Cy5.5]', 6.81);

With those in mind, consider the next molecule.
Qu. Could you tell me which pIC50 is on file for C#CCCC(=O)NCCCOc1ccc(C(=O)N[C@H](CC(=O)O)Cc2ccc(OCCCNc3cc(OC)ccn3)cc2)cc1 [L1] ?
Ans. 6.82
